These measurements were taken from the supplement of paper PMC7125110.

B1: glmS ribozyme (parent)
chain: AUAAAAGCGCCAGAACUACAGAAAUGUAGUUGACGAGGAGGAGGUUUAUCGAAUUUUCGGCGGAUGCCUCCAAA

Variants of: B1
EXPERIMENT NOTES: self-cleavage kobs at 10000 uM GlcN6P; higher = faster cleavage; RNA array
MEASUREMENT PARAMETERS: with glucosamine-6-phosphate
Fewer inactive variants are shown than the library holds.
self-cleavage kobs at 10000 uM GlcN6P: recorded values

Look at this variant and give its reported self-cleavage kobs at 10000 uM GlcN6P. AUAAAAGCGCCAGAACUACAGAAAUGUAGUUGACGAUGAGAAGGUUUAUCGAAUUUUCGGCGGAUGCCUCCAAA [G37U G41A]
< 1e-05 s⁻¹

Bench note: what self-cleavage kobs at 10000 uM GlcN6P did AUAAAAGCGCCAGAACUACAGAAAUGUAGUUGACGAGGAGGAGGUUGAUCGAAUUUUUGGCGGAUGCCUCCAAA [U47G C58U] show?
6.32e-05 s⁻¹

Need self-cleavage kobs at 10000 uM GlcN6P, item AUAAAAGCGCCAGACCUACAGAAAUGUAGUUGACGAGGAGGAGGUUUAUGGAGUUUUCGGCAGAUGCCUGCAAA [A15C C50G A53G G62A C70G]
8.78e-05 s⁻¹

Find the recorded self-cleavage kobs at 10000 uM GlcN6P belonging to AUAAAAGCGCCAGGUCUACAGAAAUGUAGUUGACGAGGAGGAGGUUUAUCGAAUUUUCGGCGGAUGCGUCCAAA [A14G A15U C68G] and report it.
7.97e-05 s⁻¹
